pIC50: −log10 of the molar value.
Compiled from multiple publications: pIC50 readings for PDHK2 (Homo sapiens, UniProt Q15119).

Cc1ccc(C(=O)N(C)C2CCN(C(=O)[C@@](C)(O)C(F)(F)F)CC2)cc1 ... 6.60
C[C@@H]1CN(C(=O)[C@@](C)(O)C(F)(F)F)Cc2cnc(-c3ncc(F)cc3F)n21 ... 5.52 to 6.52
Cc1ccc(N(C)C(=O)C2CCN(C(=O)[C@@](C)(O)C(F)(F)F)CC2)c(F)c1 ... 6.70
C[C@@](O)(C(=O)N1CCc2c(cnn2-c2ccc(F)cc2F)C1)C(F)(F)F ... > 6.52
C[C@@](O)(C(=O)N1CCC(c2ccnn2-c2ccc(C(F)(F)F)cc2)CC1)C(F)(F)F ... > 6.52
CN(C(=O)C1CCN(C(=O)[C@@](C)(O)C(F)(F)F)CC1)c1ccc(C(F)(F)F)cc1Cl ... 6.39
Cc1cc(C2CCN(C(=O)[C@@](C)(O)C(F)(F)F)CC2)nn1-c1ccc(F)cc1 ... 5.52 to 6.52

Let us move to another entry and its pIC50.
Report pIC50 under test system PDHK2 (Homo sapiens, UniProt Q15119) for `C[C@@](O)(C(=O)N1CCC(c2ccnn2-c2nc3ccccc3s2)CC1)C(F)(F)F` . 5.52 to 6.52

====

Compiled from multiple publications: IC50 readings for PDHK2 (Homo sapiens, UniProt Q15119).

Reference set, count: 6
C[C@@](O)(C(=O)N1CCC(c2ccnn2-c2ccc(Cl)c(Cl)c2)CC1)C(F)(F)F ... 0.3 to 3 µM
C[C@H]1CN(C(=O)[C@@](C)(O)C(F)(F)F)CC[C@H]1C1(c2nnc(-c3ccccc3)o2)CC1 (stereo in doubt) ... 11 µM
C[C@@H]1CN(C(=O)[C@@](C)(O)C(F)(F)F)CC[C@@H]1N(C)C(=O)c1ncc(F)cc1F ... 0.24 µM
COc1ccc(-c2nnc(C3([C@@H]4CCN(C(=O)[C@@](C)(O)C(F)(F)F)C[C@@H]4C)CC3)[nH]2)cc1 ... 13 µM
C[C@@H]1CN(C(=O)[C@@](C)(O)C(F)(F)F)CC[C@@H]1c1ccnn1[C@H]1CC[C@@H](O)CC1 ... < 0.3 µM
CC1CN(C(=O)[C@@](C)(O)C(F)(F)F)Cc2cnn(-c3ccc(F)cc3)c21 (stereo partly shown) ... < 0.3 µM

Report IC50 under test system PDHK2 (Homo sapiens, UniProt Q15119) for `C[C@@](O)(C(=O)N1CCC(n2ccnc2-c2ccc(Cl)cc2)CC1)C(F)(F)F` . < 0.3 µM

====

Compiled from multiple publications: pIC50 readings for PDHK2 (Homo sapiens, UniProt Q15119).
pIC50: −log10 of the molar value.

C[C@@](O)(C(=O)N1CCC(c2ccnn2-c2ccon2)CC1)C(F)(F)F ... 5.52 to 6.52
C[C@H](O)COc1cc(-c2cnn(CC(C)(C)O)c2)c2c(c1)[C@@](O)(C(F)(F)F)c1ccccc1-2 ... 8.04

Return pIC50 (reported value) for this molecule: `C[C@@](O)(C(=O)N1CCC(c2ccnn2-c2ccccc2)CC1)C(F)(F)F` 5.52 to 6.52

Return pIC50 (reported value) for this molecule: `Cc1ccc(-c2nnc(C3([C@H]4CCN(C(=O)[C@@](C)(O)C(F)(F)F)C[C@H]4C)CC3)[nH]2)cc1` 7.05

Return pIC50 (reported value) for this molecule: `C[C@@](O)(C(=O)N1CCn2c(cnc2-c2ccc(F)cc2)C1)C(F)(F)F` 5.52 to 6.52
